- Target Or Test System: Gonadotropin-releasing hormone receptor (Rattus norvegicus, UniProt P30969)
- Sequence (P30969 whole entry): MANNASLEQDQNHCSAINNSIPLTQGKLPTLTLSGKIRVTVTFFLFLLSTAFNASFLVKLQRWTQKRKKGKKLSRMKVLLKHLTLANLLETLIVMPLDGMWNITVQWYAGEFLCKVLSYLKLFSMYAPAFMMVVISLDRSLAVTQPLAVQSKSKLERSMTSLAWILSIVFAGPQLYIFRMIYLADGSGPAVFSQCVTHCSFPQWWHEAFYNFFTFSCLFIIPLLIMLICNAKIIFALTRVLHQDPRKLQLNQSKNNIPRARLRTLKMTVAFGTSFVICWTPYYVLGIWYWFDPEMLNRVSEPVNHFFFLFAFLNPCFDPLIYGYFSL
- Assay Overview: Binding affinity at rat GnRH receptor by whole cell binding assay
Measured Parameter: pIC50
Give bare numbers, as −log10 of the molar value.

## Input Need pIC50 of Cc1cc(C)cc(-c2[nH]c3ccc(C(C)(C)C(=O)N4CC5CCC4CC5)cc3c2[C@H](C)CNCCc2ccncc2)c1 , thanks.
## Output 8.77

----------
- Assay Overview: AUC (0 to 6 hrs) in cynomolgus monkey at 10 mg/kg, po
- Format: ADME, organism-based, Macaca fascicularis
- Set-up: time < 6 hr, dose 10 mg/kg, route oral
- Assay Conditions: plasma
Measured Parameter: AUC(0-t) at 6 h
The reply should consist of the numeric value with the unit placed after it.

## Input Need AUC(0-t) at 6 h of CONC(=O)Nc1ccc(-c2sc3c(c2CN(C)Cc2ccccc2)c(=O)n(-c2ccccc2)c(=O)n3Cc2c(F)cccc2F)cc1 , thanks.
## Output 0.85 µM·h
